- assay-system: T1, IL-36R naturally expressed on OVCAR8 cells and on normal human epidermal keratinocytes (NHK cells) (human, UniProt Q9HB29 20-575)
- T1 sequence (looked up): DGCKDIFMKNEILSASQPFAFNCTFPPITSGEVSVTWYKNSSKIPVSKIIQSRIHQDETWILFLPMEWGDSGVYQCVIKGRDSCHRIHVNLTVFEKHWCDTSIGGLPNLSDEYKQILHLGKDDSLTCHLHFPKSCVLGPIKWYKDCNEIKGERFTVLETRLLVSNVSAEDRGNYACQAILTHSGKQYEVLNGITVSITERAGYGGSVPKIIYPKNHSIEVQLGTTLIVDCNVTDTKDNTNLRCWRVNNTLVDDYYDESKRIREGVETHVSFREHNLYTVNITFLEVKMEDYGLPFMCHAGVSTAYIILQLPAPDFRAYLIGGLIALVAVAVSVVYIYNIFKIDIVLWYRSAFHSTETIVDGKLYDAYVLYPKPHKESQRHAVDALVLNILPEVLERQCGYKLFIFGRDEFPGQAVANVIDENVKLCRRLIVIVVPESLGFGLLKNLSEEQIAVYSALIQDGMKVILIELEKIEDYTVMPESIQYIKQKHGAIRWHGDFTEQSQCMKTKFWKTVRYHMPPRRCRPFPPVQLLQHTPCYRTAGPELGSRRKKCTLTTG
- measurement-notes: cell-based or functional assay
Reported Maximum inhibition rate %; hIL36β; IL-8 production is given for each of the following binders.
measured-metric: Maximum inhibition rate %; hIL36β; IL-8 production (%)

binder="hz84C4-1.1 (antibody, human IgG4 S228P, kappa, V domains shown, Humanized, human IgG4 / kappa) VH: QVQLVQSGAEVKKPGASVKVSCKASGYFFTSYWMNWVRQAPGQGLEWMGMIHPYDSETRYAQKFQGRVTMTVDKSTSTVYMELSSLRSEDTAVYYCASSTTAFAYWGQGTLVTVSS VL: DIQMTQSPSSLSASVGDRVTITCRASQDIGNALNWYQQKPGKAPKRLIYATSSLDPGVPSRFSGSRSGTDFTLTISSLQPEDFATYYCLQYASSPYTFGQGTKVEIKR" units=% observed_result=99.3
binder="hz84C4-1.4 (antibody, human IgG4 S228P, kappa, V domains shown, Humanized, human IgG4 / kappa) VH: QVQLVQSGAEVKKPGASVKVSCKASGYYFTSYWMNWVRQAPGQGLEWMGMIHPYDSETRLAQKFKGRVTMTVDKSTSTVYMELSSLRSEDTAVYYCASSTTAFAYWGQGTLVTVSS VL: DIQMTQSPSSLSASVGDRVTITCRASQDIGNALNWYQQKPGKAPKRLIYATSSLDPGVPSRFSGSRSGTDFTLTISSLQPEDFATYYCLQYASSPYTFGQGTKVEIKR" units=% observed_result=98.5

The reported numbers originate from patent US20240270857A1.
